test: Human HepG2 cell viability assay in 384 well format; type: toxicity, cell-based; design: dose 125 nL, time 70.5 hour; concentration not given beside the values; conditions: HepG2 cells, read-out: Inhibition
MEASURE: cytotoxicity at 70.5 h (%)
Answer in %, number only, no unit symbol.

Need cytotoxicity at 70.5 h of O=C(c1cnc(NCC2CCCO2)c(Cl)c1)N1CCOCC1 (stereo unspecified) , thanks. -9.69

Need cytotoxicity at 70.5 h of O=C1CC(NS(=O)(=O)c2ccc(F)c(Cl)c2)CN1 (stereo unspecified) , thanks. 0.519

Need cytotoxicity at 70.5 h of Cc1nc(CN2CCCN(CCOc3cccc(C#N)c3)CC2)no1 , thanks. 38.4

Need cytotoxicity at 70.5 h of CN(C)CCN1CCN(CC2CC2)c2ncccc2C1 , thanks. -3.26

Need cytotoxicity at 70.5 h of O=C(Cc1cccc(O)c1)N1CCCC(O)(CN2CCCC2)CC1 (stereo unspecified) , thanks. -6.1

Need cytotoxicity at 70.5 h of Cc1cc(-c2cnc(NCc3cccnc3)nc2C(C)C)on1 , thanks. -25.7

Need cytotoxicity at 70.5 h of CC(C)C(NC(=O)Cc1ccccc1)C(=O)NCc1ccc(O)nc1 (stereo unspecified) , thanks. -11.4

Need cytotoxicity at 70.5 h of COCCN1CCC12CCN(c1ncccn1)C2 (stereo unspecified) , thanks. -5.32

Need cytotoxicity at 70.5 h of c1cnnc(N2CCCC(NCc3ccc(-n4cccn4)cc3)C2)c1 (stereo unspecified) , thanks. -4.64

Need cytotoxicity at 70.5 h of O=C(c1ccc(O)c(Cl)c1)N1CCC(c2n[nH]c(C3CC3)n2)CC1 , thanks. 36.5

Need cytotoxicity at 70.5 h of CCc1nc(CN2CCN(C(C)c3nc(C4CC4)no3)CC2)no1 (stereo unspecified) , thanks. -10.3

Need cytotoxicity at 70.5 h of CCCNC(=O)C1CCN(CC(O)c2ccccc2C(F)(F)F)CC1 (stereo unspecified) , thanks. 0.668

Need cytotoxicity at 70.5 h of Cc1cnc(N2CCC3(CC2)CN(Cc2cccs2)CCO3)nc1 , thanks. -8.99

Need cytotoxicity at 70.5 h of Cc1nc(C2NC3(CCCC3)C(=O)N2CC2CC2)cs1 (stereo unspecified) , thanks. -5.61

Need cytotoxicity at 70.5 h of CNC(=O)c1cn[nH]c1C1CCCN1c1nc(C)cc(C)n1 (stereo unspecified) , thanks. -3.88

Need cytotoxicity at 70.5 h of COc1ccc(C)cc1CN1CCCC1Cn1nc(C)nc1C (stereo unspecified) , thanks. -9.81

Need cytotoxicity at 70.5 h of O=c1cc(-c2ccncc2)nc(-c2ccc(CN3CC[C@H](O)C3)cc2)[nH]1 , thanks. -6.15

Need cytotoxicity at 70.5 h of CC(Cc1cccc(F)c1)C(=O)NS(=O)(=O)c1ccc(F)cc1 (stereo unspecified) , thanks. 11.8

Need cytotoxicity at 70.5 h of COCCn1cnc2ccc(NC(=O)c3ccc(OC)cc3)cc2c1=O , thanks. -9.11

Need cytotoxicity at 70.5 h of NS(=O)(=O)c1cccnc1Nc1c(Cl)cccc1Cl , thanks. 14

Need cytotoxicity at 70.5 h of CN1CCCN(c2nccc(-c3c[nH]nc3C3CCCCC3)n2)CC1 , thanks. -3.95

Need cytotoxicity at 70.5 h of c1ccc2sc(NCC3(N4CCOCC4)CCSC3)nc2c1 (stereo unspecified) , thanks. -4.14

Need cytotoxicity at 70.5 h of CCC(CO)N(Cc1ccccn1)Cc1c[nH]nc1-c1ccc(F)cc1 (stereo unspecified) , thanks. -6.02

Need cytotoxicity at 70.5 h of CNC(=O)c1ccc(OC)c(NCc2ncc(-c3cccs3)o2)c1 , thanks. -92.5

Need cytotoxicity at 70.5 h of CCc1nc(C)c([C@H]2CN(C)C[C@@H]2C(=O)NCc2ccccn2)[nH]1 , thanks. -2.64

Need cytotoxicity at 70.5 h of COc1ccccc1OCCN1CCC(N2CCNC2=O)CC1 , thanks. 19.7

Need cytotoxicity at 70.5 h of O=C(c1cc(COc2ccc3c(c2)OCO3)[nH]n1)N1CC=CC1CO (stereo unspecified) , thanks. -8.31

Need cytotoxicity at 70.5 h of OC(CN1CCN(Cc2ccc(F)c(F)c2)CC1)C1CC1 (stereo unspecified) , thanks. 0.728

Need cytotoxicity at 70.5 h of Cc1ncsc1C(=O)N1CCn2nc(CN3CCSCC3)cc2C1 , thanks. -1.17

Need cytotoxicity at 70.5 h of Cc1ccc(C)c(NC(=O)Cc2c(C)nc3c(c2C)c(=O)[nH]n3C)c1 , thanks. 29.5

Need cytotoxicity at 70.5 h of CCc1nc(CC(=O)N2CCN(c3cnccn3)CC2)cs1 , thanks. -0.0277

Need cytotoxicity at 70.5 h of CCN(CCO)Cc1ccc(Br)c2cccnc12 , thanks. -1.88

Need cytotoxicity at 70.5 h of CC(C)N1CCC(c2ccnc3c(C(=O)N4CCCC4)ncn23)CC1 , thanks. -3.82

Need cytotoxicity at 70.5 h of CC(C)(C)NS(=O)(=O)c1ccccc1CNCc1ccccc1 , thanks. -5.72

Need cytotoxicity at 70.5 h of CC(NC(=O)CCCOc1ccc(F)cc1)c1nnc2n1CCC2 (stereo unspecified) , thanks. -1.76

Need cytotoxicity at 70.5 h of O=C(c1ccccc1)N1CCC[C@]2(C[C@@H](OCc3ccccn3)CO2)C1 , thanks. -13.1

Need cytotoxicity at 70.5 h of CC(CCN(C)C)NC(=O)N1CCSC(C)(C)C1 (stereo unspecified) , thanks. -1.34

Need cytotoxicity at 70.5 h of CN(Cc1ccc(Cl)s1)C(=O)c1ccccc1OCC(N)=O , thanks. -14.1

Need cytotoxicity at 70.5 h of CNC(=O)[C@@H](C)NC(=O)c1cc(-c2ccc(F)cc2)c(C)s1 , thanks. -3.7

Need cytotoxicity at 70.5 h of C[S+](C)[c-]1c(=O)[nH]c(=O)n(CCc2ccc(F)cc2)c1=O , thanks. -2.07

Need cytotoxicity at 70.5 h of Cc1cnn(CC2CN(CC(=O)Nc3cc(C)no3)CCO2)c1 (stereo unspecified) , thanks. -9.53

Need cytotoxicity at 70.5 h of O=C1NC(C(=O)NCc2cccnc2Oc2ccc(F)cc2F)CO1 (stereo unspecified) , thanks. -18.3

Need cytotoxicity at 70.5 h of Cc1noc(C)c1CC(=O)N1CCC(c2ccn3nccc3n2)CC1 , thanks. 0.22

Need cytotoxicity at 70.5 h of CC(C)c1nn(C)c(Cl)c1CNC1CCOc2ccccc21 (stereo unspecified) , thanks. -2.92

Need cytotoxicity at 70.5 h of CC(CNC(=O)c1cc(-n2cccn2)ccn1)Cn1ccnc1 (stereo unspecified) , thanks. -0.0471

Need cytotoxicity at 70.5 h of O=C1CCCN1Cc1nnc2n1CCN(Cc1ccccn1)CC2 , thanks. -7.47

----------
test: Human HepG2 cell viability assay in 384 well format; type: toxicity, cell-based; set-up: dose 125 nL, time 70.5 hour; concentration not given beside the values; conditions: HepG2 cells, read-out: Inhibition
Task for the reader: assign each of the following compounds its reported cytotoxicity at 70.5 h.
Answer in %, number only, no unit symbol.

Need cytotoxicity at 70.5 h of Cc1ccccc1[C@@H]1CN(CCCS(=O)(=O)N(C)C)C[C@H]1C(=O)O , thanks. 7.05

Need cytotoxicity at 70.5 h of CCn1nc(C)c2c1cnn2CCNS(=O)(=O)Cc1ccccc1 , thanks. 11.3

Need cytotoxicity at 70.5 h of Cc1ccnc(C2CN(Cc3ccc(-c4ccccc4C(=O)O)o3)C2)n1 , thanks. -0.616

Need cytotoxicity at 70.5 h of Cc1ccccc1C1(CNC(=O)c2ccc(S(C)(=O)=O)cc2)CC1 , thanks. 3.63

Need cytotoxicity at 70.5 h of O=C(Nc1ncnc2c1CCC2)c1ccc2c(c1)OCO2 , thanks. 1.01

Need cytotoxicity at 70.5 h of CN(CC(=O)Nc1ccncc1)C1CCCN(c2cccnn2)C1 (configuration not stated) , thanks. -3.61

Need cytotoxicity at 70.5 h of N#Cc1ccccc1N1CCCN(C(=O)NCc2cc[nH]n2)CC1 , thanks. -6.85

----------
Task for the reader: assign each of the following molecules its reported cytotoxicity at 70.5 h.
assay: Human HepG2 cell viability assay in 384 well format; type: toxicity, cell-based; design: dose 125 nL, time 70.5 hour; concentration not given beside the values; settings: HepG2 cells, read-out: Inhibition
Answer in %, number only, no unit symbol.

Need cytotoxicity at 70.5 h of CN(C)C[C@@H]1CN(Cc2ccccc2C#N)C[C@@H]1CO , thanks. 2.25

Need cytotoxicity at 70.5 h of O=C1CC2(CCCCN2C(=O)c2ccoc2)CN1Cc1ccccc1 (stereo not given) , thanks. 3.41

Need cytotoxicity at 70.5 h of Cc1cnc(N2CC[C@@H]3OC(COCC(=O)N(C)C)CC[C@@H]32)nc1 (stereo not given in full) , thanks. -117

Need cytotoxicity at 70.5 h of Cc1cccc(CC(=O)N2CCCCC2CN)c1 (stereo not given) , thanks. -3.78

Need cytotoxicity at 70.5 h of COCC1CN(Cc2ccc(F)cc2)Cc2nn(C)cc21 (stereo not given) , thanks. -3
